target: PfCRT^Dd2 (Plasmodium falciparum, UniProt Q9N623, A220S/I356T/K76T/M74I/N326S/N75E/Q271E/R371I); assay: cell-based; type: cell-based; settings: […], pH 5.5, read-out: [3H]CQ transport (% PfCRTDd2 control), trans-stimulation, PfCRTDd2, trans-stimulation; [test solute]i = 45 mM (30 mM for some solutes due to solubility); PfCRT-mediated component (background subtracted); mean ± SEM; SEM
Listing of recorded activity at 45000 µM by entry.
// return numeric value only (unit: %, not printed)

Known results for compounds:
N[C@@H](CO)C(=O)O
98
CC(C)[C@H](N)C(=O)O
95
C[C@H](N)C(=O)O
96
N=C(N)NCCC[C@H](N)C(=O)O
95
C[C@@H](O)[C@H](N)C(=O)O
97
N[C@@H](Cc1ccc(O)cc1)C(=O)O
94
CC[C@H](C)[C@H](N)C(=O)O
98
CC(C)C[C@H](N)C(=O)O
96

Now examine the next entry.
Find the recorded activity at 45000 µM belonging to N[C@@H](CS)C(=O)O and report it.
99

* * *

# Lookup of reported activity at 5000 µM keyed by entry
target: PfCRT^Dd2 (Plasmodium falciparum, UniProt Q9N623, A220S/I356T/K76T/M74I/N326S/N75E/Q271E/R371I); experiment: cell-based; format: cell-based; details: […], pH 5.5, read-out: Uptake of [3H]CQ (% PfCRTDd2 control), trans-stimulation, PfCRTDd2 oocytes; [test solute]i = 5 mM; total [3H]CQ transport, normalised to the oocyte type control
Your answer is read as %, so omit the unit and give the number.

A selection of reference data follows.
CC(C)C[C@H](N)C(=O)O
97
NCCCC[C@H](N)C(=O)O
99
N[C@@H](Cc1ccccc1)C(=O)O
101
CC(C)[C@H](N)C(=O)O
99

// activity at 5000 µM lookup, key: N[C@@H](Cc1c[nH]c2ccccc12)C(=O)O
100

Which activity at 5000 µM value is on record for C[C@H](N)C(=O)O ?
97

Value lookup for activity at 5000 µM; key = NC(=O)CC[C@H](N)C(=O)O
101

Consider the compound shown here: N=C(N)NCCC[C@H](N)C(=O)O What is its recorded activity at 5000 µM?
100

* * *

biological target: PfCRT^7G8 in C6^7G8 parasites (Plasmodium falciparum, UniProt Q8IBZ9, A220S/C72S/I351M/I356L/K76T/N326D); construct: PfCRT also functions as a peptide transporter within its native environment of the DV membrane; expressed in transfected cells; host or cells: P. falciparum pfcrt transfectant line C6^7G8 (saponin-isolated trophozoites); experiment: P. falciparum H+-efflux assay (rate of DV alkalinisation after concanamycin A); assay type: cell-based; conditions: C67G8; test solute 10 μM
observation type: Effect on rate of DV alkalinisation / H+ leak (in words)

Cc1cccc(C)c1OCC(=O)N[C@@H](Cc1ccccc1)[C@@H](O)C[C@H](Cc1ccccc1)NC(=O)[C@H](C(C)C)N1CCCNC1=O [lopinavir]
without effect
N[C@@H](Cc1c[nH]cn1)C(=O)O [L-histidine]
without effect
CC(C)c1nc(CN(C)C(=O)N[C@H](C(=O)N[C@@H](Cc2ccccc2)C[C@H](O)[C@H](Cc2ccccc2)NC(=O)OCc2cncs2)C(C)C)cs1 [ritonavir]
without effect
